tgt: p38 MAP kinase (Homo sapiens)
Sequence (Q16539 whole entry): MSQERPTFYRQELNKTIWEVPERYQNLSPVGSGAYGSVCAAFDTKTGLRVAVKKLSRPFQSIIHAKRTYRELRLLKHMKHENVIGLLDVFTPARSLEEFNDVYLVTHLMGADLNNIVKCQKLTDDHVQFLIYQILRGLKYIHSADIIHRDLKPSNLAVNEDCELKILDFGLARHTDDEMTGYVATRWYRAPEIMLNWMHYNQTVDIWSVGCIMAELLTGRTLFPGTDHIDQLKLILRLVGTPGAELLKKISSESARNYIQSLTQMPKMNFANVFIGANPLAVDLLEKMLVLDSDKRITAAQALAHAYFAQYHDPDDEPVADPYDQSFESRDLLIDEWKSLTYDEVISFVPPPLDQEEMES
test name: p38 MAP Kinase Assay (33P incorporation into myelin basic protein, filter plate)
Format: biochemical
test conditions: Table 1; MKK6-activated p38, MBP substrate, 50 minutes
endpoint: IC50

In [3]: df
Out[3]:
                                    molecule  endpoint         val
 0  O=C(Nc1ccc(Cl)c(COc2cccnc2)c1)c1ccnc(N2CCOCC2)c1 [Compound 44]      IC50  < 0.002 mM
 1  Nc1ncccc1OCc1cccc(Cl)c1 [Compound 9, 2-amino-3-(3-chlorobenzyloxy)pyridine]      IC50      < 1 mM
 2  O=C(Nc1ccc(F)c(COc2cccnc2)c1)c1cc(F)cc(N2CCOCC2)c1 [Compound 62]      IC50  < 0.002 mM
 3  O=C(Nc1cccc(COc2cccnc2)c1)c1cc(F)cc(N2CCOCC2)c1 [Compound 67]      IC50   < 0.02 mM
 4  O=C(Nc1ccc(Cl)c(COc2cccnc2)c1)c1cccc(Cl)c1 [Compound 70]      IC50   < 0.02 mM
 5     Cc1cccc(COc2cccnc2N)c1F [Compound 28]      IC50      < 1 mM
 6   Nc1ccc(Cl)c(COc2cccnc2)c1 [Compound 41]      IC50      < 1 mM
 7  Nc1ncccc1OCc1cccc(C(=O)NCc2cccc3ccccc23)c1 [Compound 33]      IC50      < 1 mM
 8    Nc1ncccc1OCc1ccc(F)cc1Cl [Compound 31]      IC50      < 1 mM
 9  Nc1ncccc1OCc1ccccc1C(F)(F)F [Compound 23]      IC50    < 0.1 mM
10    Nc1ncccc1OCn1nnc2ccccc21 [Compound 37]      IC50      < 1 mM

Origin of values: patent US20060063782A1
